Target: DP receptor (Homo sapiens, UniProt Q13258)
Construct: endogenous in cells
Sequence (Q13258 1-359): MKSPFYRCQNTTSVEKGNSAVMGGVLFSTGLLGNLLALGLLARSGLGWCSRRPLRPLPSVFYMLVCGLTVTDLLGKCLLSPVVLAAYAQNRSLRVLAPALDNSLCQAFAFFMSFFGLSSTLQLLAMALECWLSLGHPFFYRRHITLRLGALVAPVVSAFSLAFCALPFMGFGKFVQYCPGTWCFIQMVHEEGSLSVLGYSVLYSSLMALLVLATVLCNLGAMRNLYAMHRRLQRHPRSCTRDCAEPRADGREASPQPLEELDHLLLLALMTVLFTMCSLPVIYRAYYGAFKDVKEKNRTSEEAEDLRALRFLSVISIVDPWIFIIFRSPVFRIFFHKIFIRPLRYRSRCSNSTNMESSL
Assay: Receptor binding assay, [3H]-PGD2, platelet membrane
Conditions: [3H]-PGD2, human platelet membrane
assay-readout: Ki (nM)
Answer with a number only, understood to be in nM.

# example entries with known answers
[[record]]
compound = "CC(C)Oc1ccc(S(=O)(=O)N2CCN(c3ccc(Cl)c(OCC(=O)O)c3)C(C)C2)cc1 (centres unmarked)"
endpoint_unit = "nM"
quantitative_result = 1600

[[record]]
compound = "CC(C)Oc1ccc(S(=O)(=O)N2CCN(c3ccc(NC(=O)c4ccccn4)c(OCC(=O)O)c3)CC2)cc1"
endpoint_unit = "nM"
quantitative_result = 2200

[[record]]
compound = "CC(C)Oc1ccc(S(=O)(=O)N2CCN(c3cc(OCC(=O)O)cc(-c4ccoc4)c3)CC2)cc1"
endpoint_unit = "nM"
quantitative_result = 250

[[record]]
compound = "CC(C)Oc1ccc(S(=O)(=O)N2CCN(c3ccc(-c4nnco4)c(OCC(=O)O)c3)CC2)cc1"
endpoint_unit = "nM"
quantitative_result = 870

[[record]]
compound = "CC(C)Oc1ccc(S(=O)(=O)N2CCN(c3ccc(-c4ccoc4)c(OCC(=O)O)c3)CC2)cc1"
endpoint_unit = "nM"
quantitative_result = 270

[[record]]
compound = "CC(C)Oc1ccc(S(=O)(=O)N2CCC(Oc3ccc(Cl)cc3CCC(=O)O)CC2)cc1"
endpoint_unit = "nM"
quantitative_result = 30000

[[record]]
compound = "Cc1nnc(-c2ccc(N3CCN(S(=O)(=O)c4ccc(OC(C)C)cc4)CC3)cc2OCC(=O)O)o1"
endpoint_unit = "nM"
quantitative_result = 1400


Fill in: Ki on DP receptor (Homo sapiens, UniProt Q13258), entry CC(C)Oc1ccc(S(=O)(=O)N2CCN(c3ccc(C(N)=O)c(OCC(=O)O)c3)CC2)cc1
2600

---

target: DP receptor (Homo sapiens, UniProt Q13258); construct: endogenous in cells; host or cells: washed platelets from peripheral blood of a healthy volunteer; assay: cAMP assay with washed platelet (DP inhibitory activity in vitro); type: cell-based; settings: read-out: IC50 (50% DP-inhibitory concentration in the cAMP assay); washed human platelets, 100 nM PGD2, cAMP by HTRF
pIC50: −log10 of the molar value.
Classify by measured pIC50: t if it is equal to or exceeds 6, f if it is smaller.

Reference set, count: 6
[[record]]
smiles_notation = "Cc1cc(OCC(=O)O)cc(N2CCN(S(=O)(=O)c3ccc(OC(C)C)cc3)CC2)c1"
qualitative_label = "f"

[[record]]
smiles_notation = "CC(C)Oc1ccc(S(=O)(=O)N2CCN(c3ccc(NC(=O)c4ccno4)c(OCC(=O)O)c3)CC2)cc1"
qualitative_label = "f"

[[record]]
smiles_notation = "CC(C)Oc1ccc(S(=O)(=O)N2CCN(c3ccc(C(=O)NC4CC4)c(OCC(=O)O)c3)CC2)cc1"
qualitative_label = "f"

[[record]]
smiles_notation = "CC(C)Oc1ccc(S(=O)(=O)N2CCC(Oc3ccccc3CCC(=O)O)CC2)cc1"
qualitative_label = "f"

[[record]]
smiles_notation = "CC(C)Oc1ccc(S(=O)(=O)N2CCN(c3ccc(Cl)c(/C=C/C(=O)O)c3)CC2)cc1"
qualitative_label = "f"

[[record]]
smiles_notation = "CC(C)Oc1ccc(S(=O)(=O)N2CCN(c3cccc(OCC(=O)O)n3)CC2)cc1"
qualitative_label = "f"


Has Cc1nnc(-c2ccc(N3CCN(S(=O)(=O)c4ccc(OC(C)C)cc4)CC3)cc2OCC(=O)O)o1 a recorded pIC50 greater than or equal to 6?
f

Please tell me: is the compound CC(C)Sc1ccc(S(=O)(=O)N2CCN(c3ccc(Cl)c(OCC(=O)O)c3)CC2)cc1 at or over 6 in terms of pIC50?
t

Determine whether this compound has pIC50 no lower than 6: CC(C)Oc1ccc(S(=O)(=O)N2CCN(c3cc(F)c(F)c(OCC(=O)O)c3)CC2)cn1
f

Decide: is the reported value of pIC50 for CC(C)Oc1ccc(S(=O)(=O)N2CCN(c3ccc(NC(=O)c4ccccc4)c(OCC(=O)O)c3)CC2)cc1 equal to or greater than 6?
f

Item CC(C)Oc1ccc(S(=O)(=O)N2CCN(c3ccc(-c4ccco4)c(OCC(=O)O)c3)CC2)cc1 with pIC50 of 6 or above?
t

---

# key: entry, value: IC50
Molecular target: DP receptor (Homo sapiens, UniProt Q13258)
Construct: endogenous in cells; host or cells: washed platelets from peripheral blood of a healthy volunteer
Sequence (Q13258 1-359): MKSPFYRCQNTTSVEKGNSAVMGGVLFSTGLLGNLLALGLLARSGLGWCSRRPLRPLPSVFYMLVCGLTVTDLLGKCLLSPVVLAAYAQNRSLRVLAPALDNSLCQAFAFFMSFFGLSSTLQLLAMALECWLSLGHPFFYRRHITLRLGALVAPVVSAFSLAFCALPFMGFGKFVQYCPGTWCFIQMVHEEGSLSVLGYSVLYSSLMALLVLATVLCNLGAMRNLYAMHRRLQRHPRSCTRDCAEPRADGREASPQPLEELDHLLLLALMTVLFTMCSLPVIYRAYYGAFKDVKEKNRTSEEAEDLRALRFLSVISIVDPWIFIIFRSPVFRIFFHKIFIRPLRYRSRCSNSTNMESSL
Assay: cAMP assay with washed platelet (DP inhibitory activity in vitro)
Type: cell-based
Settings: read-out: IC50 (50% DP-inhibitory concentration in the cAMP assay); washed human platelets, 100 nM PGD2, cAMP by HTRF
State the answer as a number, implicitly in nM.

[[record]]
compound = "CC(C)Oc1ccc(S(=O)(=O)N2CCN(c3ccc(C(=O)Nc4nc5ccccc5[nH]4)c(OCC(=O)O)c3)CC2)cc1 [II-101]"
study_system = "DP receptor (Homo sapiens, UniProt Q13258)"
endpoint_unit = "nM"
quantitative_result = 210

[[record]]
compound = "COC(=O)Nc1ccc(N2CCN(S(=O)(=O)c3ccc(OC(C)C)cc3)CC2)cc1OCC(=O)O [II-59]"
study_system = "DP receptor (Homo sapiens, UniProt Q13258)"
endpoint_unit = "nM"
quantitative_result = 4300

[[record]]
compound = "CC(C)Oc1ccc(S(=O)(=O)N2CCN(c3ccc(-n4cccn4)c(OCC(=O)O)c3)CC2)cc1 [II-95]"
study_system = "DP receptor (Homo sapiens, UniProt Q13258)"
endpoint_unit = "nM"
quantitative_result = 2400

[[record]]
compound = "CC(C)Oc1ccc(S(=O)(=O)N2CCN(c3cc(OCC(=O)O)cc(-c4ccccc4)c3)CC2)cc1 [II-57]"
study_system = "DP receptor (Homo sapiens, UniProt Q13258)"
endpoint_unit = "nM"
quantitative_result = 1200

[[record]]
compound = "CC(C)Oc1ccc(S(=O)(=O)N2CCN(c3ccc(NC(=O)c4cccnc4)c(OCC(=O)O)c3)CC2)cc1 [II-48]"
study_system = "DP receptor (Homo sapiens, UniProt Q13258)"
endpoint_unit = "nM"
quantitative_result = 4600

[[record]]
compound = "CC(C)Oc1ccc(S(=O)(=O)N2CCN(c3cc(F)cc(OCC(=O)O)c3)CC2)cc1 [II-25]"
study_system = "DP receptor (Homo sapiens, UniProt Q13258)"
endpoint_unit = "nM"
quantitative_result = 670

[[record]]
compound = "COc1cccc(OC2CCN(S(=O)(=O)c3ccc(OC(C)C)cc3)CC2)c1/C=C/C(=O)O [Compound I-8]"
study_system = "DP receptor (Homo sapiens, UniProt Q13258)"
endpoint_unit = "nM"
quantitative_result = 2100


Identify the reported IC50 for the following entry. CC(C)Oc1ccc(S(=O)(=O)N2CCC(Oc3ccc(Cl)cc3CCC(=O)O)CC2)cc1 [Compound I-10]
2700

---

target: DP receptor (Homo sapiens); construct: endogenous in cells; assay: Receptor binding assay, [3H]-PGD2, platelet membrane; conditions: [3H]-PGD2, human platelet membrane
Parameter pKi: see the listing below.
Recall that pKi is obtained by taking minus log10 of the concentration measured in molar.

[[record]]
compound = "CC(C)Oc1ccc(S(=O)(=O)N2CCN(c3ccc(C(=O)Nc4ccn(C)n4)c(OCC(=O)O)c3)CC2)cc1 [II-111]"
assay_readout = "pKi"
quantitative_result = 4.44

[[record]]
compound = "CC(C)Oc1ccc(S(=O)(=O)N2CCN(c3ccc(-c4cocn4)c(OCC(=O)O)c3)CC2)cc1 [II-96]"
assay_readout = "pKi"
quantitative_result = 6.48

[[record]]
compound = "CC(C)Oc1ccc(S(=O)(=O)N2CCN(c3ccc(NC(=O)c4ccccc4)c(OCC(=O)O)c3)CC2)cc1 [II-28]"
assay_readout = "pKi"
quantitative_result = 5.42

[[record]]
compound = "CC[C@@H](C)Oc1ccc(S(=O)(=O)N2CCN(c3ccc(Cl)c(OCC(=O)O)c3)CC2)cc1 [II-29]"
assay_readout = "pKi"
quantitative_result = 6.13

[[record]]
compound = "CC(C)Oc1ccc(S(=O)(=O)N2CCN(c3ccc(-c4cnco4)c(OCC(=O)O)c3)CC2)cn1 [II-85]"
assay_readout = "pKi"
quantitative_result = 5.77

[[record]]
compound = "CC(C)Oc1ccc(S(=O)(=O)N2CCN(c3cc(OCC(=O)O)cc(C(F)(F)F)c3)CC2)cc1 [II-19]"
assay_readout = "pKi"
quantitative_result = 5.70

[[record]]
compound = "CC(C)Oc1ccc(S(=O)(=O)N2CCN(c3ccc([N+](=O)[O-])c(NCC(=O)O)c3)CC2)cc1 [II-135]"
assay_readout = "pKi"
quantitative_result = 6.31

[[record]]
compound = "CC(C)Oc1ccc(S(=O)(=O)N2CCN(c3ccc(Br)c(OCC(=O)O)c3)CC2)cc1 [II-33]"
assay_readout = "pKi"
quantitative_result = 5.72


# ---- query compound ----
Give reported pKi for CC(C)Oc1ccc(S(=O)(=O)N2CCN(c3ccc(C(=O)NC4CC4)c(OCC(=O)O)c3)CC2)cc1 [II-89] (DP receptor (Homo sapiens))
4.70
